B1: Receptor-interacting serine/threonine-protein kinase 2, residues 438 to 518; numbered along this chain, O43353 (parent)
chain: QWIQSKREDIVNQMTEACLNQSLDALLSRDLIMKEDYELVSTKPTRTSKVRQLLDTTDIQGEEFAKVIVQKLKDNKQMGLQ

Variants of: B1
Assay: abundance fitness (aPCA) (normalised: wild type 0, dead -1); higher = more abundant; growth selection in yeast, the domain comes from the species named
Details: Homo sapiens
In this scheme, each record receives a class according to its abundance fitness; the ranges are group 1 (below -0.5), group 2 (-0.5 to below -0.2), group 3 (-0.2 or more)

Would you please look over these solved cases?
Residue string: QWIQSKREDIVNQMTEACLNQSLDALLSRDLIMKEDYELVSTKPTRTSKVRQLLDTTDIQGEESAKVIVQKLKDNKQMGLQ [F64S]
Group: group 2
//
Residue string: QWIQSKREDIVNQMTEACLNQSLDALLSRDLIMKEDYELVSTKPTRTSKVRQLLDTTDIQGEEFAKVIVQKLKDDKQMGLQ [N75D]
Group: group 3
//
Residue string: QWIQSKREDIVNQMTEACLNQSLDALLSRDLIMKEDYELVSTKPTRTSKVRQLLDTTDIQGEEFAKVIVQKEKDNKQMGLQ [L72E]
Group: group 2
//
Residue string: QWIQSKREDIVNQMTEACLNQSLDALLSRDLIMKEDYELVSTKPTRTSKVRQLLDTTDIQGEEFAKVIVQKLKDVKQMGLQ [N75V]
Group: group 2
//
Residue string: QWIQSKREDIVNQMTEACLNQSLDALLSRDLIMKEDYELVSHKPTRTSKVRQLLDTTDIQGEEFAKVIVQKLKDNKQMGLQ [T42H]
Group: group 3

Please find the next variant below.
IN: Determine which band this variant sits in: QWIQSKREDIVNQMTEACLNQSLDAGLSRDLIMKEDYELVSTKPTRTSKVRQLLDTTDIQGEEFAKVIVQKLKDNKQMGLQ [L26G]
OUT: group 1
